FYI, the data here is from paper PMC9482650.

target: T1, SNTA1, Q13424
T1 sequence (Q13424 82-180, limits assumed, looked up): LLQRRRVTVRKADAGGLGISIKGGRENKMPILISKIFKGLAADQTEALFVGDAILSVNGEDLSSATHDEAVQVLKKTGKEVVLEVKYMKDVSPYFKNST
test_name: holdup assay
Design: key: below the threshold = too weak to quantify, mostly under pKd 3.1 to 4
protocol_conditions: plain residues with an end cap or a label only (N-terminal biotin on a linker: ado-ado)
observable: pKd

[[record]]
binder = "MHIQEKGFHV [EPHA6, Q9UF33]"
result = "below the threshold"

[[record]]
binder = "PYSESDDDWC [CACNA1A, O00555]"
result = "below the threshold"

[[record]]
binder = "EPQYQPGENL [SRC, P12931]"
result = "below the threshold"

[[record]]
binder = "VLYPREGTEV [FOXI1, Q12951]"
result = 4.02

